Overview of reported AUC of viability dose-response curve across a group of compounds:
test system: SEM cells; assay: AUC of viability dose-response curve (% viability x log10 dose units); higher = less sensitive; settings: HPLM + 10% dialyzed FBS; 48 h
endpoint label: AUC of viability dose-response curve

compound smiles	test value
C[C@]1(c2nc3c(C(N)=O)cccc3[nH]2)CCCN1	372
CCOC(=O)C/1=C(O)/C(=O)N(CC2=CC=CC=C2)C1	463
COc1ccc(C(C)=O)c(O)c1	439
OC1=CC2=C(C(=C1)O)C(=O)\C=C(/O2)C3=CC=CC=C3	429
CC[C@H](C)[N]1C=C(C)C2=C1C=C(C=C2C(=O)NC\C3=C(C)\C=C(\C)NC3=O)C4=CC=C(N=C4)N5CCNCC5	474
NC/1=N/C2=C([NH]C=N2)C(=S)N1	458

* * *

system: SEM cells; experiment: cell viability relative to DMSO control; higher = less cytotoxic; details: RPMI 5 mM glucose + 10% dialyzed FBS; 48 h; 46.1 µM
Entries and their measured cell viability follow.
endpoint label: cell viability (%)

compound	endpoint label	test value
C/C=C(/C)C(=O)O[C@H]1C(C)=C[C@]23C(=O)[C@@H](C=C(CO)[C@@H](O)[C@]12O)[C@H]1[C@@H](C[C@H]3C)C1(C)C	cell viability	42.6
C=C(C)[C@H]1Cc2c(ccc3c2O[C@@H]2COc4cc(OC)c(OC)cc4[C@@H]2C3=O)O1	cell viability	13.3
N=C(NCCCCCCNC(=N)NC(=N)Nc1ccc(Cl)cc1)NC(=N)Nc1ccc(Cl)cc1	cell viability	42.1
OC1CCC(Nc2ncc3nc(Nc4c(F)cc(F)cc4F)n([C@@H]4CCOC4)c3n2)CC1 (stereo partly drawn)	cell viability	87.3
CC(C)C[C@H](NC(=O)[C@H](CCc1ccccc1)NC(=O)CN1CCOCC1)C(=O)N[C@@H](Cc1ccccc1)C(=O)N[C@@H](CC(C)C)C(=O)[C@@]1(C)CO1	cell viability	1.54
CC/1=C(/N2[C@H](SC1)[C@H](NC(=O)[C@H](N)\C3=C\C\C=C/C3)C2=O)C(O)=O	cell viability	113
CC(C)C1=C(O)C=C(O)C(=C1)C/2=N/NC(=O)N2C3=CC4=C(C=C3)[N](C)C=C4	cell viability	22
CCC(C)(C)c1ccc(CC(C)CN2C[C@@H](C)O[C@@H](C)C2)cc1 (stereo partly drawn)	cell viability	78

* * *

test system: NOMO1; assay: cell viability relative to DMSO control; higher = less cytotoxic; conditions: HPLM + 10% dialyzed FBS; 48 h; 0.00702 µM
Collected cell viability values appear next to each entry.
endpoint label: cell viability (%)

compound smiles	test value
Cc1cn(-c2cc(NC(=O)c3ccc(C)c(Nc4nccc(-c5cccnc5)n4)c3)cc(C(F)(F)F)c2)cn1	123
O=C(O[C@H]1C[C@H]2CC[C@@H](C1)[N+]21CCCC1)C(O)(c1ccccc1)c1ccccc1.[Cl-]	121
C/C=C(/C)C(=O)O[C@H]1C(C)=C[C@]23C(=O)[C@@H](C=C(CO)[C@@H](O)[C@]12O)[C@H]1[C@@H](C[C@H]3C)C1(C)C	114
C\C1=C(\C=C(\C#N)C(=O)N1)C2=CC=NC=C2	117

* * *

test system: NOMO1; experiment: cell viability relative to DMSO control; higher = less cytotoxic; conditions: RPMI 5 mM glucose + 10% FBS; 48 h; 5.12 µM
Item-by-item account of cell viability
endpoint label: cell viability (%)

compound	endpoint label	value unit	test value
Cc1cn([C@@H]2O[C@H](CO)[C@@H](O)[C@@H]2F)c(=O)[nH]c1=O	cell viability	%	109
O=C(O)c1ccc2c(c1)nc(Nc1cccc(Cl)c1)c1ccncc12	cell viability	%	83.7
C/C=C(/C)C(=O)O[C@H]1C(C)=C[C@]23C(=O)[C@@H](C=C(CO)[C@@H](O)[C@]12O)[C@H]1[C@@H](C[C@H]3C)C1(C)C	cell viability	%	66.3
Cc1cnc(NC(=O)Nc2cc(Br)c(C)cc2OC[C@@H]2CNCCO2)cn1	cell viability	%	51
CCC[C@H]1C[C@H](C(=O)N[C@@H]([C@@H]2O[C@@H](SC)[C@@H](O)[C@@H](O)[C@H]2O)[C@H](C)Cl)N(C)C1	cell viability	%	129
C#C[C@]1(O)CC[C@H]2[C@@H]3CCc4cc(O)ccc4[C@H]3CC[C@@]21C	cell viability	%	89
O=C(NC[C@H](O)CO)c1ccncc1Nc1ccc(I)cc1F	cell viability	%	47.6
OC1CCC(Nc2ncc3nc(Nc4c(F)cc(F)cc4F)n([C@@H]4CCOC4)c3n2)CC1 (stereo partly drawn)	cell viability	%	125
